# Tested on: HOP-92 NSCLC
# EXPERIMENT_DESCRIPTION: NCI-60 one-dose screen, 48 h
# CONDITION_CONTEXT: 10 µM unless noted
This is part of a sample that, as a whole, favours compounds with a hit. Of some 83,000 tested, about 20% had one in any assay. Active and inactive are the calls of the source. How the source made its calls: active means growth percent below 10; inactive means the rest.
Your reply should match one of these outcome classes. active, inactive

Task item: Recorded test outcome, item `O=C(CSc1nnnn1-c1ccccc1)Nc1ccc(Oc2ccccc2)cc1`
Reply: inactive

Task item: Recorded test outcome, item `Cc1cc(=O)n(C(=S)Nc2ccc(Cl)cc2)c2cc(O)ccc12`
Reply: inactive

Task item: Recorded test outcome, item `COc1ccc(/C=C(\C(=O)NCc2cccnc2)S(=O)(=O)c2ccccc2)cc1OC`
Reply: inactive

Task item: Recorded test outcome, item `O=C(Nc1ccc(Nc2ccncc2)cc1)c1ccc(Nc2ccnc3ccc([N+](=O)[O-])cc23)cc1`
Reply: inactive

Task item: Recorded test outcome, item `c1ccc(Nc2nc3c(s2)CCc2c[nH]cc2-3)nc1`
Reply: inactive

Task item: Recorded test outcome, item `Cc1ccc2cnc(N)c(C#Cc3cc(C(=O)Nc4ccc(CN5CCN(C)CC5)c(C(F)(F)F)c4)cnc3C)c2c1`
Reply: active

Task item: Recorded test outcome, item CN1C(=O)N2CN3CCCN(C3)CN3C(=S)NC1C23 (stereo not given)
Reply: inactive

Task item: Recorded test outcome, item `N#Cc1c(-c2cccc(Cl)c2)cc(-c2cccnc2)[nH]c1=O`
Reply: inactive

Task item: Recorded test outcome, item C#CCOc1cccc(Nc2ncnc3c2ncn3C2CCN(C(=O)CCl)C2)c1 (stereo not given)
Reply: active

Task item: Recorded test outcome, item `NS(=O)(=O)c1ccc(C(=O)NN2C(=O)c3ccccc3C2=O)cc1`
Reply: inactive

Task item: Recorded test outcome, item `C/C=C1/CN(CCCCC)CC[C@H]1C(=O)c1cc2ccccc2[nH]1`
Reply: inactive

Task item: Recorded test outcome, item `CCN(CC)CCOc1ccc2c(-c3ccccc3)c(-c3ccc(OC)cc3)c(=O)oc2c1`
Reply: inactive

Task item: Recorded test outcome, item `CS(=O)(=O)Nc1cc(-c2ccc3ncnc(Nc4ccc5c(cnn5Cc5ccccc5F)c4)c3c2)cnc1Cl`
Reply: active

Task item: Recorded test outcome, item `COc1ccc(N=C2NN=C(c3c[nH]c4ccccc34)CS2)cc1OC`
Reply: inactive

Task item: Recorded test outcome, item `Cn1c(=O)c2[nH]c(SC/C(=N/O)c3ccc(Br)cc3)nc2n(C)c1=O`
Reply: active

Task item: Recorded test outcome, item `COc1ccc(NC(=O)c2ccc(Nc3ncnc4c3cnn4-c3cccc(F)c3)cc2)cc1`
Reply: inactive

Task item: Recorded test outcome, item `O=C(/C=C/c1ccccc1)c1ccc(-n2cc(CN3CCN(c4cc5c(cc4F)c(=O)c(C(=O)O)cn5C4CC4)CC3)nn2)cc1`
Reply: inactive

Task item: Recorded test outcome, item OC1CSSC1Cn1cnc2c(Nc3ccc(OCc4cccc(F)c4)c(Cl)c3)ncnc21 (stereo not given)
Reply: inactive

Task item: Recorded test outcome, item O=C1OCC2=C1C(c1ccccc1)c1cc3c(cc1N2CCO)OCCO3 (stereo not given)
Reply: inactive

Task item: Recorded test outcome, item `CCCCn1c(NC(C)=O)c(S(=O)(=O)c2ccccc2)c2nc3ccccc3nc21`
Reply: active

Task item: Recorded test outcome, item CCN(CC)C(=O)C1=C(C)NC(=O)NC1c1ccc2c(c1)OCO2 (stereo not given)
Reply: inactive

Task item: Recorded test outcome, item `O=C1NC(=O)C(c2coc3cc(Br)ccc23)=C1c1c[nH]c2ccccc12`
Reply: inactive

Task item: Recorded test outcome, item `O=C1CCCCN1c1ccc(C2=NCCCN2)cc1`
Reply: inactive

Task item: Recorded test outcome, item `NCCCNc1nc2ccccc2c2c(=O)c3cc(Cl)ccc3sc12`
Reply: active

Task item: Recorded test outcome, item `O=[N+]([O-])c1c(O)c(Cl)cc(Cl)c1Cl`
Reply: inactive

Task item: Recorded test outcome, item `S=c1ccnc[nH]1`
Reply: inactive

Task item: Recorded test outcome, item `COc1ccc(/C=C2\CN(C(=O)C(Cl)Cl)C/C(=C\c3ccc(OC)c(OC)c3)C2=O)cc1OC`
Reply: active

Task item: Recorded test outcome, item `O=C(C[C@]1(O)C(=O)Nc2ccc(Br)cc21)c1ccco1`
Reply: inactive

Task item: Recorded test outcome, item `Cc1ccc(C(=O)c2ccc(CC(=O)N/N=C/c3cccc(O)c3O)n2C)cc1`
Reply: inactive

Task item: Recorded test outcome, item `O=S(=O)(NCCNc1nccc(-c2c(-c3ccc(F)c(O)c3)nc3sccn23)n1)c1ccc(Cl)cc1`
Reply: inactive

Task item: Recorded test outcome, item COC1C(O)CC(OC2CC(OC3CC(O[C@@H]4C(=O)c5c(cc6cc(OC7CC(OC8CC(O)C(O)C(C)O8)C(O)C(C)O7)c(C)c(O)c6c5O)CC4[C@H](OC)C(=O)O)OC(C)C3O)OC(C)C2O)OC1C (stereo not given in full)
Reply: inactive

Task item: Recorded test outcome, item O=C(/C=C/C12c3ccccc3C(c3ccccc31)C1C(=O)NC(=O)C12)c1ccco1 (stereo not given)
Reply: inactive

Task item: Recorded test outcome, item `Cn1cc(-c2nonc2-c2c[nH]c3ccccc23)c2cc(Br)ccc21`
Reply: inactive

Task item: Recorded test outcome, item `CC1=C2[C@@H](CC1)[C@]1(C)O[C@@](C3CCNCC3)(C[C@H]1OC(=O)CO)[C@H]2OC(=O)/C=C/c1ccccc1`
Reply: inactive

Task item: Recorded test outcome, item `Cc1ccc(Cc2cnc(NC(=O)/C=C/c3ccc(C)o3)s2)cc1`
Reply: inactive

Task item: Recorded test outcome, item `COc1cccc(-c2cn3nc(-c4cn(C)c5ccccc45)sc3n2)c1`
Reply: inactive

Task item: Recorded test outcome, item O=C(NN1C(=O)CSC1c1cccc([N+](=O)[O-])c1)c1ccc(NC(=O)c2ccccn2)cc1 (stereo not given)
Reply: inactive

Task item: Recorded test outcome, item `COc1nc(/C=C\Nc2ccc3c(c2)OCCOCCOCCOCCO3)nc(OC)n1`
Reply: inactive

Task item: Recorded test outcome, item `COc1ccc(N/N=C/c2cn(-c3ccc(C(=O)O)cc3)nc2-c2cc3ccccc3oc2=O)cc1`
Reply: inactive

Task item: Recorded test outcome, item `Clc1ccc(-c2cc(-c3ccccc3)nc(N3CCN(CCCNc4ccnc5cc(Cl)ccc45)CC3)n2)cc1`
Reply: inactive
